// reported pIC50 for each item listed
# Tested on: K562 (human chronic myelogenous leukemia) cells
# experiment-summary: Cell viability, Cell Titer Glo 2.0 assay, K562 cells
# Assay type: cell-based
# condition-set: 72 hours
pIC50: −log10 of the molar value.

Here are 3 molecules together with their reported answers.
- Cc1c(O)c(-c2nc3cn(C4CCNCC4)nc3s2)cc2cn(C)nc12: 6.00 to 7.00
- Cn1cc2cc(-n3cc4sc(C5CCNCC5)cc4n3)c(O)cc2n1: 5.00 to 6.00
- Cn1cc2cc(-c3cc4cn([C@@H]5CCNC[C@@H]5F)nc4s3)cc(F)c2n1: 6.00 to 7.00

Qu. # query: pIC50 of entry "COc1c(-c2cc3cn(C4CCNCC4)nc3s2)cc2cn(C)nc2c1F"
Ans. 6.00 to 7.00

Qu. Check "Cc1cn2nc(-n3cc4sc(C5CCNCC5)cc4n3)cc2c(C)n1" too.
Ans. 5.00 to 6.00

Qu. Check "Cc1cn2cc(-n3cc4sc(C5CCNCC5)cc4n3)cc(Cl)c2n1" too.
Ans. 5.00 to 6.00

Qu. Check "Cn1cc2cc(-c3cc4cn(C5CCNCC5)nc4s3)c(C#N)cc2n1" too.
Ans. 5.00 to 6.00

---

# System: HTT mRNA
# experiment-summary: Splicing RT-qPCR assay, HTT canonical (CJ) and alternative (AJ) junction mRNA
# Format: cell-based
# condition-set: Homo sapiens; Table 7; AC50 = 50% response in AJ mRNA increase; RT-qPCR, A673 or K562 cells, 24 hours treatment
measurement-label: EC50

Here are 5 compounds together with their reported answers.
• Cn1cc2cc(-c3cn4nc(C5CCNCC5)nc4s3)cc(F)c2n1 = 100 to 1000 nM
• Cc1cn2nc(-c3nc4sc(C5CCNCC5)cc4s3)cc2c(C)n1 = 100 to 1000 nM
• Cc1cn2cc(-n3cc4sc(C5CCNCC5)cc4n3)cc(Cl)c2n1 = 100 to 1000 nM
• CN1CCC(N(C)c2cc3sc(-c4cc(F)c5nn(C)cc5c4)nc3s2)CC1 = > 10000 nM
• Cc1cn2cc(-c3nc4sc(C5CCNCC5)cc4s3)nc(C)c2n1 = 100 to 1000 nM

Qu. # query: EC50 of entry "CCN1CCC(n2cc3cc(-c4cc(F)c5nn(C)cc5c4)sc3n2)CC1"
Ans. < 100 nM

Qu. Check "Cc1c(O)c(-c2nc3cn(C4CCNCC4)nc3s2)cc2cn(C)nc12" too.
Ans. < 100 nM

Qu. Check "Cc1cn2nc(-n3cc4sc(C5CCNCC5)cc4n3)cc2c(C)n1" too.
Ans. 100 to 1000 nM

Qu. Check "Cc1cn2cc(-c3cc4cn(C5CCNCC5)nc4s3)ncc2n1" too.
Ans. 1000 to 10000 nM

---

# System: MYB mRNA
# experiment-summary: Splicing RT-qPCR assay, MYB canonical (CJ) and alternative (AJ) junction mRNA
# Type: cell-based
# condition-set: Homo sapiens; Table 7; IC50 = 50% response in CJ mRNA decrease; RT-qPCR, A673 or K562 cells, 24 hours treatment; read-out: MYB CJ
pIC50: −log10 of the molar value.
// reported pIC50 for each item listed

• Cn1cc2cc(-c3cc4cn(C5CCNCC5)nc4s3)ncc2n1 = 5.00 to 6.00
• Cn1cc2cc(-c3cc4cn([C@@H]5CCNC[C@H]5F)nc4s3)cc(F)c2n1 = 6.00 to 7.00
• Cc1cn2nc(N3Cc4sc(C5CCNCC5)cc4C3=O)cc(C)c2n1 = 6.00 to 7.00
• COc1c(-c2cc3cn(C4CCNCC4)nc3s2)cc2c[nH]nc2c1C = < 5.00
• Cc1cn2nc(-c3nc4sc(C5=CCOCC5)cc4s3)cc(C)c2n1 = 6.00 to 7.00
• Cc1cn2cc(-n3cc4sc(C5CCNCC5)cc4n3)cc(F)c2n1 = 5.00 to 6.00

Qu. Please tell me: pIC50 of "Cc1cn2nc(-c3nc4sc(C5CCNCC5)cc4s3)cc(C)c2n1" , system MYB mRNA?
Ans. > 7.00

Qu. Check "Cc1nc2cc(O)c(-c3nc4cn(C5CCNCC5)nc4s3)cc2o1" too.
Ans. 5.00 to 6.00

Qu. Check "Cc1cn2nc(-n3cc4sc(C5CCNCC5)cc4n3)cc2c(C)n1" too.
Ans. 5.00 to 6.00

Qu. Check "CN1CCC(n2cc3cc(-c4cc(F)c5nn(C)cc5c4)sc3n2)CC1" too.
Ans. 6.00 to 7.00

Qu. Check "Cc1nc2c(F)cc(-n3cc4sc(C5CCNCC5)cc4n3)cc2s1" too.
Ans. < 5.00

Qu. Check "CN1CCC(N(C)c2cc3sc(-c4cc(F)c5nn(C)cc5c4)nc3s2)CC1" too.
Ans. 5.00 to 6.00

Qu. Check Cn1cc2cc(-c3nc4sc(N5CCC56CCNC6)cc4s3)cc(F)c2n1 (stereo not shown) too.
Ans. < 5.00

Qu. Check "Cc1cn2cc(-n3cc4cc(C5CCNCC5)sc4n3)cc(F)c2n1" too.
Ans. 6.00 to 7.00

Qu. Check "Cc1cn2cc(-n3cc4cc(C5CCNCC5)sc4n3)ncc2n1" too.
Ans. 6.00 to 7.00

Qu. Check "Cc1cn2nc(-n3cc4sc(C5CCNCC5)cc4n3)nc2c(C)n1" too.
Ans. 5.00 to 6.00

Qu. Check "Cn1cc2cc(-c3cc4cn(C5CCNCC5)nc4s3)c(F)cc2n1" too.
Ans. 6.00 to 7.00

Qu. Check "Cn1cc2cc(-n3cc4sc(C5CCNCC5)cc4n3)c(O)cc2n1" too.
Ans. 5.00 to 6.00

Qu. Check CN1CCCC2(CCN2c2cc3sc(-c4cc(F)c5nn(C)cc5c4)nc3s2)C1 (stereo not shown) too.
Ans. < 5.00

---

# System: HTT mRNA
# experiment-summary: Splicing RT-qPCR assay, HTT canonical (CJ) and alternative (AJ) junction mRNA
# Assay type: cell-based
# condition-set: Homo sapiens; Table 7; AC50 = 50% response in AJ mRNA increase; RT-qPCR, A673 or K562 cells, 24 hours treatment
Counter-ions that a name gives are not always drawn.
// reported EC50 for each item listed

Here are 5 molecules together with their reported answers.
• Cn1cc2ccc(-c3nc4sc(C5CCNCC5)cc4s3)cc2n1 [Compound 127, hydrochloride] = 1000 to 10000 nM
• Cn1cc2cc(-c3nc4sc(N5CCNCC5)cc4s3)cc(F)c2n1 = < 100 nM
• Cc1cn2nc(-n3cc4cc(C5CCNCC5)sc4n3)cc(C)c2n1 = 100 to 1000 nM
• Cn1cc2cc(-n3cc4cc(C5CCNCC5)sc4n3)cc(F)c2n1 = 100 to 1000 nM
• Cn1cc2cc(-c3cc4cn(C5CCNCC5)nc4s3)c(C#N)cc2n1 = 1000 to 10000 nM

Qu. # query: EC50 of entry "Cc1cn2cc(-n3cc4sc(C5CCNCC5)cc4n3)nc2c(C)n1"
Ans. 1000 to 10000 nM

Qu. Check "Cn1cc2c(F)cc(-n3cc4sc(C5CCNCC5)cc4n3)cc2n1" too.
Ans. > 10000 nM

Qu. Check "Cn1cc2cc(-c3nc4sc(C5(O)CCNCC5)cc4s3)cc(F)c2n1" too.
Ans. 1000 to 10000 nM

Qu. Check "Cc1cn2cc(-c3cc4cn(C5CCNCC5)nc4s3)cc(C)c2n1" too.
Ans. < 100 nM

---

# System: Target C mRNA
# experiment-summary: Splicing RT-qPCR gene panel, Target C canonical junction (CJ) mRNA
# Type: cell-based
# condition-set: Homo sapiens; Table 8; larger gene panel, decrease in CJ mRNA levels
measurement-label: IC50

* Cc1cn2nc(-c3cc4cn(C5CCNCC5)nc4s3)cc2c(C)n1 | 1000 to 10000 nM

Turning now to a further compound:
Qu. # query: IC50 of entry "Cc1cn2cc(-n3cc4cc(C5CCNCC5)sc4n3)ncc2n1"
Ans. 100 to 1000 nM

---

# Test system: HTT mRNA
# experiment-summary: Splicing RT-qPCR assay, HTT canonical (CJ) and alternative (AJ) junction mRNA
# Type: cell-based
# condition-set: Homo sapiens; Table 7; AC50 = 50% response in AJ mRNA increase; RT-qPCR, A673 or K562 cells, 24 hours treatment
# Experimental: Compounds described herein were used to modulate RNA transcript abundance in cells. The expression of a target mRNA was measured by detecting the formation of an exon-exon junction in the canonical transcript (CJ). A compound mediated exon-inclusion event was detected by observing an increase in formation of a new junction with an alternative exon (AJ). Real-time qPCR assays were used to detect these splicing switches and interrogate the potency of various compounds towards different target genes. […]
pEC50: −log10 of the molar value.
measurement-label: pEC50

- Cn1cc2cc(-c3nc4sc(N5CCNC(C)(C)C5)cc4s3)cc(F)c2n1: 6.00 to 7.00
- Cc1cn2nc(-c3nc4sc(C5=CCOCC5)cc4s3)cc(C)c2n1: 6.00 to 7.00
- Cc1cn2nc(-c3nc4sc(C5CCNC5)cc4s3)cc(C)c2n1 (centres unmarked): 6.00 to 7.00
- COc1c(-c2cc3cn(C4CCNCC4)nc3s2)cc2c[nH]nc2c1C: < 5.00

Turning now to a further compound:
Qu. # query: pEC50 of entry "COc1c(-c2cc3cn(C4CCNCC4)nc3s2)cc(F)c2nn(C)cc12"
Ans. < 5.00
